test system: IGROV1 ovarian; test: NCI-60 one-dose screen, 48 h; details: 10 µM unless noted
This is part of a sample that, as a whole, favours compounds with a hit. Of some 83,000 tested, about 20% had one in any assay. Activity calls are given as the source filed them. How the source made its calls: active means growth percent below 10; inactive means the rest.
Lab note: assign the record to one of 1 = active, 0 = inactive

compound	class assignment
COc1cc(-c2nc3sc4c(c3c(=O)[nH]2)CCCCCC4)cc(OC)c1OC	0
Cc1cc(=O)[nH]c(/C(=N/Nc2ccccc2)C(=O)c2ccc(Cl)cc2)n1	0
CCN1CCN(c2nc(NNC(=O)Cc3ccccc3)nc(N3CCN(C(c4ccccc4)c4ccccc4)CC3)n2)CC1	0
Cc1ccc(/C=C/C(=O)c2ccc(F)cc2)s1	0
CCOc1cc(/C=C/C(=O)C(C(=O)/C=C/c2ccc(OC(=O)CNc3nnc(C)s3)c(OCC)c2)C(=O)CNc2nnc(C)s2)ccc1OC(=O)CNc1nnc(C)s1	1
Cc1nn(-c2ccccc2)c2nc(N)c(C3=NCCO3)nc12	0

Exam item: Query: recorded result category for COc1ccc(NS(=O)(=O)N2CCCCC2)cc1 in this test
Marked response: 0

Exam item: // return assay outcome for O=C(N/N=C/c1cccc(O)c1O)c1ccccc1
Marked response: 1

Exam item: Recorded test call requested for CCOC(=O)/C=C1/SC(=Nc2ccc(C#N)cc2)N(Cc2ccco2)C1=O
Marked response: 0

Exam item: Recorded test call requested for c1ccc(-c2nc(Nc3nccnn3)c3ccccc3n2)cc1
Marked response: 0

Exam item: Which outcome was entered for the compound Cc1ccc(C(=O)Cc2ccccc2)c(O)c1 in this test?
Marked response: 0

Exam item: Hi, do you know how COc1cc(C2=NN(C=O)C(c3cccc(Nc4ccnc5cc(Cl)ccc45)c3)C2)cc(OC)c1OC (stereo not drawn) came out in this test?
Marked response: 0

Exam item: Answer briefly: the call reported for Cc1n(Cc2ccc3ccccc3c2)cc[n+]1Cc1ccc2ccccc2c1 in this assay.
Marked response: 1

Exam item: Hey, what did the test say about O=C(CNC(=O)c1cccc2ccccc12)Nc1ccccc1Oc1cccc(O)c1 ?
Marked response: 0

----------
system: MALME-3M melanoma; test: NCI-60 one-dose screen, 48 h; settings: 10 µM unless noted
About 83,000 compounds went through this panel and 20% of them were active in at least one assay; those are over-represented in the sample as a whole. Active and inactive are the calls of the source. Rule for the calls: active = growth percent below 10; inactive = the rest.
Respond using exactly one of the listed classes: active, inactive

Previously resolved entries follow.
molecule	class assignment
Oc1c(Cl)cc(Oc2cc(Cl)c(O)c(CN3CCOCC3)c2)cc1CN1CCOCC1	inactive
O=C(CSc1ncc(-c2ccccc2)n1-c1ccccc1)Nc1ccc(-c2nc3ccccc3s2)cc1	inactive
NS(=O)(=O)c1ccc(-n2ncc3c(N/N=C/c4ccccc4)ncnc32)cc1	inactive
CC(C)N(Cc1ccccc1)c1c(Cl)ssc1=O	inactive
CC1CC=CCC1C1OCC(C)(C)CO1 (stereo unspecified)	inactive
C[C@H]1O[C@@H](O[C@H]2[C@@H](O)C[C@H](O[C@H]3[C@@H](O)C[C@H](O[C@H]4CC[C@]5(C)C6CC[C@]7(C)[C@@H](C8=CC(=O)OC8)CC[C@]7(O)C6CC[C@@H]5C4)O[C@@H]3C)O[C@@H]2C)C[C@H](O)[C@@H]1O (stereo partly specified)	active

Exam item: // param item: COc1ccc(CC(=O)Nc2nn3c(-c4cc(C(F)(F)F)cc(C(F)(F)F)c4)nnc3s2)cc1 ; yields the recorded call
Marked response: inactive

Exam item: // param item: NC(=N\N=C/Cc1ccccc1)/C(N)=N\N=C\Cc1ccccc1 ; yields the recorded call
Marked response: inactive

Exam item: Per the assay record, what outcome was assigned to CCCCCCCCCCOC(C)=O ?
Marked response: inactive

Exam item: What was the test verdict on O=c1oc2c(cc1-c1ccc([N+](=O)[O-])cc1)C(O)Oc1ccccc1-2 (stereo unspecified) ?
Marked response: inactive

Exam item: Just curious, what result did O=C(Nc1ccccc1OC(=O)c1ccccc1)c1ccccc1 get here?
Marked response: inactive

Exam item: Recorded test outcome, item CCSCC1CC(O)(c2ccccc2)C(c2ccccc2)C(c2ccc(Cl)cc2)O1 (stereo unspecified)
Marked response: active

Exam item: Recorded test outcome, item CCCCCc1c(C)[nH]c(/C=C2\N=C(c3ccc[nH]3)C=C2OCc2ccccc2)c1C
Marked response: active

Exam item: Answer briefly: the call reported for CC1Cc2ccccc2N1C(=O)c1ccc(C(=O)c2ccccc2)cc1 (stereo unspecified) in this assay.
Marked response: inactive

Exam item: Identify the outcome logged in this assay for the molecule shown: COc1ccc(NS(=O)(=O)N2CCCCC2)cc1
Marked response: inactive

Exam item: Hi, sorry to bother you, what did the test record for c1ccc(COc2ccc(Nc3ncnc4c3cnn4-c3ccccc3)cc2)cc1 ?
Marked response: inactive

Exam item: Dear all, I need the recorded test outcome for N#Cc1ncc(-c2ccc(C(F)(F)F)cc2)c(NC2CCCCCC2)n1 , thank you.
Marked response: active
